STUDY_TARGET: Vasopressin V1 receptor (Homo sapiens, UniProt P37288+P47901)
TEST_DESCRIPTION: Inhibitory activity against arginine vasopressin V1 receptor using [3H]AVP as radioligand in human platelet
In this section, each of the compounds is paired with its reported IC50.
Answer in nM, number only, no unit symbol.

Consider the worked cases shown below.
{"SMILES_ENTRY": "CN1CCCN(C(=O)CCCOc2cc(C(=O)N3CCCCc4sccc43)ccc2NC(=O)c2ccccc2-c2ccccc2)CC1", "STUDY_TARGET": "Vasopressin V1 receptor (Homo sapiens, UniProt P37288+P47901)", "IC50 [nM]": 50}
{"SMILES_ENTRY": "CN1CCN(C(=O)CCCOc2cc(C(=O)N3CCCCc4sccc43)ccc2NC(=O)c2ccccc2-c2ccccc2)CC1", "STUDY_TARGET": "Vasopressin V1 receptor (Homo sapiens, UniProt P37288+P47901)", "IC50 [nM]": 10}
{"SMILES_ENTRY": "O=C(Nc1ccc(C(=O)N2CCCCc3sccc32)cc1O)c1ccccc1-c1ccccc1", "STUDY_TARGET": "Vasopressin V1 receptor (Homo sapiens, UniProt P37288+P47901)", "IC50 [nM]": 60}

Continue with the next compound.
// query Hi! What's the reported IC50 for O=C(Nc1ccc(C(=O)N2CCCN(CCN3CCCC3)c3sccc32)cc1)c1ccccc1-c1ccccc1 on Vasopressin V1 receptor (Homo sapiens, UniProt P37288+P47901)?
// result 800
